measured_target: Recombinant human integrin αVβ8 (Homo sapiens, UniProt P06756+P26012)
Sequence (P26012 43-684 limits assumed, one chain of several): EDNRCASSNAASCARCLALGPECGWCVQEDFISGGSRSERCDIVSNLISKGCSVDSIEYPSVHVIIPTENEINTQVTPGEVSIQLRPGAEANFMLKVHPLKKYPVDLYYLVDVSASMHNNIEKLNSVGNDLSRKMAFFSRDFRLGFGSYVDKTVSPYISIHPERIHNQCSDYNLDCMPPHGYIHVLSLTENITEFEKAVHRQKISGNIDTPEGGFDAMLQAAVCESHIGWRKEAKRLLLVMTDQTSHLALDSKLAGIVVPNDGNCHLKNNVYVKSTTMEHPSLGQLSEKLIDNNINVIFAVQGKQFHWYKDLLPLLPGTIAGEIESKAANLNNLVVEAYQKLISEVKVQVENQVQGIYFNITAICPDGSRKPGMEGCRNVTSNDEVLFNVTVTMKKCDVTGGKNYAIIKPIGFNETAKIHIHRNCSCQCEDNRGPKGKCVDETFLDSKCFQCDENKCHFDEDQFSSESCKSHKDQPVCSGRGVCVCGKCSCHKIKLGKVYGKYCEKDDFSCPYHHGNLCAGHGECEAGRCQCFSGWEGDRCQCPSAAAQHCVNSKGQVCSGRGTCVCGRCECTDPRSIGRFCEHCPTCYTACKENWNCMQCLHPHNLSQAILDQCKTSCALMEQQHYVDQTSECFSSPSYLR
measurement_description: Solid Phase Receptor Assay for αVβ8 function
particulars: plate-bound human LAP; read-out: αVβ8 SPRA IC50
Each entry below carries its recorded pIC50.
Please note pIC50 is a logarithmic value: minus log10 of concentration in mol/L. Answer with that number alone.

The examples below pair each entry with its known result.
compound	recorded_metric	numeric_readout
CC(C)(C)c1ccc(Br)c(C(CC(=O)O)Cc2csc(CCCc3ccc4c(n3)NCCC4)n2)c1 (stereo not shown)	pIC50	6.85
COc1c(C(C)(C)C)cc(C(CC(=O)O)Cc2csc(CCCc3ccc4c(n3)NCCC4)n2)cc1C(C)(C)C (stereo not shown)	pIC50	7.06
Cn1nc(CC(CC(=O)O)c2cc3c(c(C(C)(C)C)c2)OCCO3)cc1OCCc1ccc2c(n1)NCCC2 (stereo not shown)	pIC50	7.39

Next compound, please.
The recorded pIC50 for COc1ccc(C2COC2)cc1C(CC(=O)O)Cc1cc(OCCc2ccc3c(n2)NCCC3)n(C)n1 (stereo not shown) is 6.72

====

measured_target: Recombinant human integrin α5β1 (Homo sapiens, UniProt P05556+P08648)
Sequence (P08648 42-995 limits assumed): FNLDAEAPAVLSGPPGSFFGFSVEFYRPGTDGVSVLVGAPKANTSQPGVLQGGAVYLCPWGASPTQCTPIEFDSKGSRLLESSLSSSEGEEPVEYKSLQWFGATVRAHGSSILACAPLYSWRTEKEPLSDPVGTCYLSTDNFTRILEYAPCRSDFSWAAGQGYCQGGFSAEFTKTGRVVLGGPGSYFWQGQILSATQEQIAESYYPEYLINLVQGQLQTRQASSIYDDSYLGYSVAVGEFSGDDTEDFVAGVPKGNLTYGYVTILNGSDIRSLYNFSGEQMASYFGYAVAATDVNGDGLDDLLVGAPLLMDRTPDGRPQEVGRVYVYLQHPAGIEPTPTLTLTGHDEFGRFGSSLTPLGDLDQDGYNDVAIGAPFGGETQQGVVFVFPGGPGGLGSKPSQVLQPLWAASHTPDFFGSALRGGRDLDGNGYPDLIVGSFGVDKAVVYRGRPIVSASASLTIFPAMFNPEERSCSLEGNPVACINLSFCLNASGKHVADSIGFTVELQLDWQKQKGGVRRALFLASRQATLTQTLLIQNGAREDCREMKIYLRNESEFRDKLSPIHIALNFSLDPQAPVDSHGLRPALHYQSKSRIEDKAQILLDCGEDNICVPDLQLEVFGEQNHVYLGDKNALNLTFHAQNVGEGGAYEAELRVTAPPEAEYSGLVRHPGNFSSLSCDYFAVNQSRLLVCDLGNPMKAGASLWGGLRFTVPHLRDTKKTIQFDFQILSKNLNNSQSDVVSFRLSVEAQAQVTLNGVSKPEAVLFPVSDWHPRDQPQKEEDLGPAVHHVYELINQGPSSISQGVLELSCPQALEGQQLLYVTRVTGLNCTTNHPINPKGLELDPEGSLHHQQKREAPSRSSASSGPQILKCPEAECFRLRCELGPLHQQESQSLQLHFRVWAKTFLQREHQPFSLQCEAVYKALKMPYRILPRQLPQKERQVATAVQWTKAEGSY
Sequence (P05556 21-728 limits assumed): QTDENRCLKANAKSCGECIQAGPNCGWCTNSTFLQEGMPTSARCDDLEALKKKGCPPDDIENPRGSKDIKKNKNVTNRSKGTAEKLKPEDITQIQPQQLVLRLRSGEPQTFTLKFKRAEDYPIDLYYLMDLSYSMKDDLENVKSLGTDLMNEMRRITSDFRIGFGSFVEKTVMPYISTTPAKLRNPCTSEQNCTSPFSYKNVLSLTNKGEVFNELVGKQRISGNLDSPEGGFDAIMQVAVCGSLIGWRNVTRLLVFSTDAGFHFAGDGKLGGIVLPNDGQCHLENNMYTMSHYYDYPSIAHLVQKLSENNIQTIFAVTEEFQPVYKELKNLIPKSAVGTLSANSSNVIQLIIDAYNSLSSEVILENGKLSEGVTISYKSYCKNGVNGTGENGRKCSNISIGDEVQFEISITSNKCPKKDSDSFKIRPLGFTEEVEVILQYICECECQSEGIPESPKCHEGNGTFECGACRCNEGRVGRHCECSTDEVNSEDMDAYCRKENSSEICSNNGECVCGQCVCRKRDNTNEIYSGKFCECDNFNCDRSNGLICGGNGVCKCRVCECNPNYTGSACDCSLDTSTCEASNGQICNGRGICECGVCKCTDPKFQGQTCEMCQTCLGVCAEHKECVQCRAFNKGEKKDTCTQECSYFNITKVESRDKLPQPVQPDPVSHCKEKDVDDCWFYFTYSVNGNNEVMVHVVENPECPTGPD
measurement_description: Solid Phase Receptor Assay (SPRA) for α5β1 function
particulars: plate-bound human fibronectin
recorded_metric: pIC50
The scale used: pIC50 is minus the common logarithm of the concentration in molar units.

molecule	measured_target	pIC50
COc1c(C(C)C)cc(C(CC(=O)O)Cc2cc(OCCc3ccc4c(n3)NCCC4)n(C)n2)cc1C(C)C (stereo not shown)	Recombinant human integrin α5β1 (Homo sapiens, UniProt P05556+P08648)	8.70
COc1ccc(C2CCOCC2)cc1C(CC(=O)O)Cc1cc(OCCc2ccc3c(n2)NCCC3)n(C)n1 (stereo not shown)	Recombinant human integrin α5β1 (Homo sapiens, UniProt P05556+P08648)	7.80
COc1cc(C(CC(=O)O)Cc2cc(OCCc3ccc4c(n3)NCCC4)n(C)n2)cc(C23CC4CC(CC(C4)C2)C3)c1OC (stereo not shown)	Recombinant human integrin α5β1 (Homo sapiens, UniProt P05556+P08648)	7.33
Cn1nc(CC(CC(=O)O)c2cc(C(C)(C)C)ccc2OC(F)(F)F)cc1OCCc1ccc2c(n1)NCCC2 (stereo not shown)	Recombinant human integrin α5β1 (Homo sapiens, UniProt P05556+P08648)	8.05
COc1ccc(C(C)(C)O)cc1C(CC(=O)O)Cc1cc(OCCc2ccc3c(n2)NCCC3)n(C)n1 (stereo not shown)	Recombinant human integrin α5β1 (Homo sapiens, UniProt P05556+P08648)	8.70

Kindly note the recorded pIC50 for COc1c(Br)cc(C(C)(C)C)cc1C(CC(=O)O)Cc1cc(OCCc2ccc3c(n2)NCCC3)n(C)n1 (stereo not shown) , which is 6.74

// recorded pIC50 for Cn1nc(CC(CC(=O)O)c2cc(C(C)(C)C)ccc2F)cc1OCCc1ccc2c(n1)NCCC2 (stereo not shown) : 8.00

====

Examples of molecules with documented pIC50 follow.
measured_target: Recombinant human integrin αVβ6 (Homo sapiens, UniProt P06756+P18564)
Sequence (P06756 31-992 limits assumed): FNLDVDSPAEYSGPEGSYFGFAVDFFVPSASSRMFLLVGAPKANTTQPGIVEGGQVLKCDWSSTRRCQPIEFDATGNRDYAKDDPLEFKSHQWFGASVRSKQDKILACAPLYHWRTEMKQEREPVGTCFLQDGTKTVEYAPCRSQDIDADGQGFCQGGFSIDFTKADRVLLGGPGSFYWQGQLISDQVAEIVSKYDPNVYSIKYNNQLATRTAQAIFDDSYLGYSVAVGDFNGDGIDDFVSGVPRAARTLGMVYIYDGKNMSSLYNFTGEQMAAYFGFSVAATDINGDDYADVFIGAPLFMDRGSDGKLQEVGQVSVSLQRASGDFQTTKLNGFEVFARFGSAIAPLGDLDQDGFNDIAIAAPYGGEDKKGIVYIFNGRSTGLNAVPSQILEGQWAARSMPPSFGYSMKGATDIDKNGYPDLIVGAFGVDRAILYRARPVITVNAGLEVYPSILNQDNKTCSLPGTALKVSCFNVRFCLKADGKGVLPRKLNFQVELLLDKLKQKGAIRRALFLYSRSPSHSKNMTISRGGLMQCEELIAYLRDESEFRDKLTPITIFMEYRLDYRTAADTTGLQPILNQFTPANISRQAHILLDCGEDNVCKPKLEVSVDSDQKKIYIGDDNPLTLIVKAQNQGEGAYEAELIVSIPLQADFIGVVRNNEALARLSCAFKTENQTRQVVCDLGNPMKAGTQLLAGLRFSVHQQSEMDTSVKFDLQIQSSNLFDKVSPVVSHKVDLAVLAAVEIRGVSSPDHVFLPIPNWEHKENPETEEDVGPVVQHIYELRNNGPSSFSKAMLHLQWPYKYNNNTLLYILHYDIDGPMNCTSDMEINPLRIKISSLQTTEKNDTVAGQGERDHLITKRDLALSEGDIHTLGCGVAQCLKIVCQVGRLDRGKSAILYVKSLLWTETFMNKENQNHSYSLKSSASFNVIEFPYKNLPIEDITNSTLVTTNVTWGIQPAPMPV
Sequence (P18564 22-707 limits assumed): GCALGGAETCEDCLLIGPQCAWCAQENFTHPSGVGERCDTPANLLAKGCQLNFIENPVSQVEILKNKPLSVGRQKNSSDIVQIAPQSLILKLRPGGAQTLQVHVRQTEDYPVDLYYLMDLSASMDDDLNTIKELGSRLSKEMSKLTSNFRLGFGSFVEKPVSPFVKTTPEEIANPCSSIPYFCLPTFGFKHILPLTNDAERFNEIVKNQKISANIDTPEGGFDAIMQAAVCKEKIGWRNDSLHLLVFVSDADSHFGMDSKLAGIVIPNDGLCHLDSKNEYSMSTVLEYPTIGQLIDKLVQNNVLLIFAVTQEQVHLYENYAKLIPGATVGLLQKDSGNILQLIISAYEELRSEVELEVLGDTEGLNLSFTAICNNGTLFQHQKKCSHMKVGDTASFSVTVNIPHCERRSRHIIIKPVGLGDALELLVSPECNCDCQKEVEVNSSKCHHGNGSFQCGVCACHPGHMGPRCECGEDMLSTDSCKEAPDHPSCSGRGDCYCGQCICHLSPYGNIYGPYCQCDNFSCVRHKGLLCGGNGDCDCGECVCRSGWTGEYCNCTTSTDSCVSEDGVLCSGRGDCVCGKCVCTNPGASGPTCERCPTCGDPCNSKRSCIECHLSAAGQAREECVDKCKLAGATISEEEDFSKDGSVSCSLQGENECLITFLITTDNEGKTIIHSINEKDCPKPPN
measurement_description: Solid Phase Receptor Assay (SPRA) for αVβ6 function
particulars: plate-bound human LAP
Convention used: pIC50 is expressed as -log10 of the molar concentration.

molecule	measured_target	pIC50
Cn1nc(CC(CC(=O)O)c2cc(C(C)(C)C)cc(C(C)(C)C(F)(F)F)c2)cc1OCCc1ccc2c(n1)NCCC2 (stereo not shown) [Example 5]	Recombinant human integrin αVβ6 (Homo sapiens, UniProt P06756+P18564)	6.34

The measured pIC50 associated with Cc1cc(C)n(-c2cccc(C(CC(=O)O)Cc3csc(CCc4ccc5c(n4)NCCC5)n3)c2)n1 (stereo not shown) [Example 38] reads 6.62

Note to self: pIC50 recorded for COCC1(c2ccc(OC)c([C@H](CC(=O)O)Cc3cc(OCCc4ccc5c(n4)NCCC5)n(C)n3)c2)CCOCC1 [Example 48] was 5.55

The value of pIC50 measured for the molecule COc1c(C(CC(=O)O)Cc2cc(OCCc3ccc4c(n3)NCCC4)n(C)n2)cc(C(C)(C)C)cc1C(C)(C)C (stereo not shown) [Example 11] turned out to be 4.96
